Hey, just so you know, these numbers are from patent US20100056508A1.

For each record, write down the corresponding IC50.
Target: recombinant human adrenergic beta 1 receptors (Homo sapiens)
Construct: purchased Euroscreen
Sequence (P08588 whole entry): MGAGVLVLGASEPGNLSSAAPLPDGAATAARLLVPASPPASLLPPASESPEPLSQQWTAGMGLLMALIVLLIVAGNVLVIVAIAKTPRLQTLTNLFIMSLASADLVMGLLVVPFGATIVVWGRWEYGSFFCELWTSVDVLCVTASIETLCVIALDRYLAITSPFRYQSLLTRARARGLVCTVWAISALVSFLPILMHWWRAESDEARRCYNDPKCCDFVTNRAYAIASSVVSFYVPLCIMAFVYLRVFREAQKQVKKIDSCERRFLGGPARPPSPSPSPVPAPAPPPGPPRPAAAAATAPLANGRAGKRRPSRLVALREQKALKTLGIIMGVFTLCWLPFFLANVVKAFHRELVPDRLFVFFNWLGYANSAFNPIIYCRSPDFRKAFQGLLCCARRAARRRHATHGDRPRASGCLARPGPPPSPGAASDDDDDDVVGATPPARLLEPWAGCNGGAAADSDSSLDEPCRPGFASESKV
Experiment: Adrenergic β1 selectivity assay, [125I]-Iodocyanopindolol binding to membranes
Conditions: inhibition of [125I]-Iodocyanopindolol binding, read-out: β1 bind pIC50 (converted)
State just the number; it will be interpreted in µM.

-- ask Which IC50 is reported for this compound? O=C1COc2c(CCNCCN(C(=O)CCNCCc3ccc(Cl)cc3)C3CCCCCC3)ccc(O)c2N1 [Example 63, bis(trifluoroacetate)]
-- reply 0.251

-- ask Look up IC50 for this compound: CCCC[C@@H](C)N(CCNCCc1ccc(O)c2c1OCC(=O)N2)C(=O)CCNCCc1cccc(F)c1F [Example 53, bis(trifluoroacetate)]
-- reply 2.51

-- ask What value of IC50 has been reported for the following compound? O=C1COc2c(CCNCCN(C(=O)CCNCCc3ccc(Cl)cc3)C3CCCCC3)ccc(O)c2N1 [Example 32, bis(trifluoroacetate)]
-- reply 2

-- ask // query IC50 value for entry CCCC[C@@H](C)N(CCNCCc1ccc(O)c2c1OCC(=O)N2)C(=O)CCNCCc1cc(F)ccc1F [Example 54, bis(trifluoroacetate)]
-- reply 2

-- ask What measured IC50 goes with O=C(CCNCCc1ccccc1)N(CCNCCc1ccc(O)c(O)c1)C1CCCCC1 [Example 22, bis(trifluoroacetate)] ?
-- reply 2.51

====

Molecular target: Adrenergic β2 (Homo sapiens)
Construct: Adherent H292 cells were removed from tissue culture flasks; endogenous in cells; host or cells: H292 cells
Sequence (P07550 whole entry): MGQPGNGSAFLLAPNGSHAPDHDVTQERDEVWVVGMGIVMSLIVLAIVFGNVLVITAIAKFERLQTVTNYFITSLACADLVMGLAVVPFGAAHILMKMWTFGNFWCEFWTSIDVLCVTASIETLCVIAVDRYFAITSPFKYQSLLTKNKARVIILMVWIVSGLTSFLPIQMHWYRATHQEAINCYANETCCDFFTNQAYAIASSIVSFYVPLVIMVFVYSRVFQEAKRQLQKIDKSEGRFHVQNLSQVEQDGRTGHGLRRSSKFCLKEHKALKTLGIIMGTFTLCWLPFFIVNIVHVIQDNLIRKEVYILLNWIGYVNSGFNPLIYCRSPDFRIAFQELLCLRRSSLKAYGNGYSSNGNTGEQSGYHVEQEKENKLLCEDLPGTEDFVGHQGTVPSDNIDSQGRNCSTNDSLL
Experiment: Adrenergic β2 mediated cAMP production in H292 cells (AlphaScreen cAMP detection)
Format: cell-based
Details: cAMP production, 60 minutes at room temperature, 300 μM rolipram, read-out: β2 pEC50 (converted)
Experimental: Adrenergic β2 Mediated cAMP Production H292 cells were grown in 225 cm2 flasks incubator at 37° C., 5% CO2 in RPMI medium containing, 10% (v/v) FBS (foetal bovine serum) and 2 mM L-glutamine. […] The concentration of cAMP (cyclic adenosine monophosphate) in the cell lysate was determined using AlphaScreen™ methodology. […] Intrinsic Activity was expressed as a fraction relative to the maximum activity determined for formoterol in each experiment.
Structures can show the parent of a compound that is named as a salt.
quantity-measured: log10 of EC50 (log10 of the value in nM)
Parameter value (number): base-10 log of EC50 in nM.

-- ask Any idea what log10 of EC50 was measured for CCCC[C@@H](C)N(CCNCCc1ccc(O)c2c1OCC(=O)N2)C(=O)CCNCCc1ccccc1 [Example 25, bis(trifluoroacetate)] ?
-- reply 0.00

-- ask // lookup log10 of EC50 for O=C(CCNCCc1ccc(F)c(F)c1)N(CCNCCc1ccc(O)c2[nH]c(=O)ccc12)C1CCCCC1 [Example 16, bis(trifluoroacetate)]
-- reply 1.30

-- ask Please give the measured log10 of EC50 for this compound: CCCC[C@@H](C)N(CCNCCc1ccc(O)c2c1OCC(=O)N2)C(=O)CCNCCc1ccc(F)c(C)c1 [Example 47, bis(trifluoroacetate)]
-- reply 0.20

-- ask Would you kindly share the measured log10 of EC50 for O=C(CCNCCc1cc(F)ccc1F)N(CCNCCc1ccc(O)c2[nH]c(=O)ccc12)C1CCCCC1 [Example 17, bis(trifluoroacetate)] ?
-- reply 0.60

-- ask GET /values?readout=log10 of EC50&item= O=C1COc2c(CCNCCN(C(=O)CCNCCc3ccccc3)C3CCCCCC3)ccc(O)c2N1 [Example 24, bis(trifluoroacetate)]
-- reply 0.00

-- ask Return reported log10 of EC50; argument: O=C1COc2c(CCNCCN(C(=O)CCOCCc3cccc(Cl)c3)C3CCCCC3)ccc(O)c2N1 [Example 77, trifluoroacetate]
-- reply 0.30

-- ask Given the entry CCCC[C@@H](C)N(CCNCCc1ccc(O)c2c1OCC(=O)N2)C(=O)CCNCCc1ccc(F)c(Cl)c1 [Example 48, bis(trifluoroacetate)] , report its measured log10 of EC50.
-- reply 0.30

-- ask Requested field: log10 of EC50. Item: Cl.O=C(CCOCCc1cccc(F)c1)N(CCNCCc1ccc(O)c2[nH]c(=O)ccc12)C1CCCCC1 [Example 72, hydrochloride]
-- reply 0.70

-- ask Reported log10 of EC50, compound CCCC[C@@H](C)N(CCNCCc1ccc(O)c2c1OCC(=O)N2)C(=O)CCNCCc1ccc(Cl)c(Cl)c1 [Example 55, bis(trifluoroacetate)] : ____
-- reply 1.50

-- ask I would be grateful if you could share the reported log10 of EC50 for O=C(CCNCCc1cccc(F)c1)N(CCNCCc1ccc(O)c2[nH]c(=O)ccc12)C1CCCCC1 [Example 19] .
-- reply 1.00

-- ask What does the data say about its log10 of EC50? Entry: O=C1COc2c(CCNCCN(C(=O)CCOCCc3ccccc3)C3CCCCC3)ccc(O)c2N1 [Example 70, trifluoroacetate]
-- reply 0.60

-- ask Give its log10 of EC50 value. Item: C[C@H](C1CCCCC1)N(CCNCCc1ccc(O)c2c1OCC(=O)N2)C(=O)CCNCCc1ccccc1 [Example 61, bis(trifluoroacetate)]
-- reply 0.50

-- ask I would be grateful if you could share the reported log10 of EC50 for CC(C)[C@@H](C)N(CCNCCc1ccc(O)c2[nH]c(=O)ccc12)C(=O)CCOCCc1ccccc1.Cl [Example 80, hydrochloride] .
-- reply 1.40
